# tested_system: Ribosomal protein S6 kinase alpha-5 (Homo sapiens); note: in the data inactive means no Kd found up to 30 µM
# Sequence (O75582 whole entry): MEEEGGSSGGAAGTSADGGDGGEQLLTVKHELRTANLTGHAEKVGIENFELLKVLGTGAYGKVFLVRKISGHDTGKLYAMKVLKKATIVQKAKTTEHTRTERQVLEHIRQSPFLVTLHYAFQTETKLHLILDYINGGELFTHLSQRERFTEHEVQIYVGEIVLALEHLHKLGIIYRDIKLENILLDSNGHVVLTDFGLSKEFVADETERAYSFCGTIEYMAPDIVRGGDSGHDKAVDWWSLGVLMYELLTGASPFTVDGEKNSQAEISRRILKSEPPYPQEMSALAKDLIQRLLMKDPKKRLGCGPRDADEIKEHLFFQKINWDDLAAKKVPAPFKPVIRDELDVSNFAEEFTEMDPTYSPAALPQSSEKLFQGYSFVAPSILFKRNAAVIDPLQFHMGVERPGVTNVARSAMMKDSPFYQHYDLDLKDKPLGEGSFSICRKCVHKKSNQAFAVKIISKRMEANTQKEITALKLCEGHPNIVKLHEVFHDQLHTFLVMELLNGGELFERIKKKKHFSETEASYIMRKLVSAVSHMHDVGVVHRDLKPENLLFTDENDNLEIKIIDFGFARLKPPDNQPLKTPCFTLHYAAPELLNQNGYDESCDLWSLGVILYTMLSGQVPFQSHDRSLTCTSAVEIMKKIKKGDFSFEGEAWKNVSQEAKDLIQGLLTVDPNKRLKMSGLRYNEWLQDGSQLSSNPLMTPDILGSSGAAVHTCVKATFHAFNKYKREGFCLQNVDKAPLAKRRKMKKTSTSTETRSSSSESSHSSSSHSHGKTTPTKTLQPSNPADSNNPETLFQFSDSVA
Calls of active or inactive are those of the source.
Possible outcomes: true = active, false = inactive

1. CNS(=O)(=O)Nc1nccc(Cc2c(C)c3ccc(Oc4ncccn4)cc3oc2=O)c1F [AVUTOMETINIB]; false
2. C1=C/COCc2cc(ccc2OCCN2CCCC2)Nc2nccc(n2)-c2cccc(c2)COC/1 [PACRITINIB]; false
3. COC(=O)[C@@]1(O)C[C@H]2O[C@]1(C)n1c3ccccc3c3c4c(c5c6ccccc6n2c5c31)C(=O)NC4 [K-252A]; true
4. O=c1sn(-c2cccc3ccccc23)c(=O)n1Cc1ccccc1 [TIDEGLUSIB]; false
5. CCS(=O)(=O)N1CC(CC#N)(n2cc(-c3ncnc4[nH]ccc34)cn2)C1 [BARICITINIB]; false
6. C=CC(=O)N1CCC(Oc2cc3c(Nc4ccc(Cl)c(Cl)c4F)ncnc3cc2OC)CC1 [POZIOTINIB]; false
7. Cc1ccc(-n2nc(C(C)(C)C)cc2NC(=O)NCc2cc(F)ccc2Oc2ccc3c(cnn3CCO)c2)cc1 [PEXMETINIB]; false
8. CN1CCC(CNc2ccc3ncc(-c4cccc(OC(F)(F)F)c4)n3n2)CC1 [SGI-1776]; false

====

# tested_system: Tyrosine-protein kinase Fer (Homo sapiens, UniProt P16591); note: in the data inactive means no Kd found up to 30 µM
# Sequence (P16591 whole entry): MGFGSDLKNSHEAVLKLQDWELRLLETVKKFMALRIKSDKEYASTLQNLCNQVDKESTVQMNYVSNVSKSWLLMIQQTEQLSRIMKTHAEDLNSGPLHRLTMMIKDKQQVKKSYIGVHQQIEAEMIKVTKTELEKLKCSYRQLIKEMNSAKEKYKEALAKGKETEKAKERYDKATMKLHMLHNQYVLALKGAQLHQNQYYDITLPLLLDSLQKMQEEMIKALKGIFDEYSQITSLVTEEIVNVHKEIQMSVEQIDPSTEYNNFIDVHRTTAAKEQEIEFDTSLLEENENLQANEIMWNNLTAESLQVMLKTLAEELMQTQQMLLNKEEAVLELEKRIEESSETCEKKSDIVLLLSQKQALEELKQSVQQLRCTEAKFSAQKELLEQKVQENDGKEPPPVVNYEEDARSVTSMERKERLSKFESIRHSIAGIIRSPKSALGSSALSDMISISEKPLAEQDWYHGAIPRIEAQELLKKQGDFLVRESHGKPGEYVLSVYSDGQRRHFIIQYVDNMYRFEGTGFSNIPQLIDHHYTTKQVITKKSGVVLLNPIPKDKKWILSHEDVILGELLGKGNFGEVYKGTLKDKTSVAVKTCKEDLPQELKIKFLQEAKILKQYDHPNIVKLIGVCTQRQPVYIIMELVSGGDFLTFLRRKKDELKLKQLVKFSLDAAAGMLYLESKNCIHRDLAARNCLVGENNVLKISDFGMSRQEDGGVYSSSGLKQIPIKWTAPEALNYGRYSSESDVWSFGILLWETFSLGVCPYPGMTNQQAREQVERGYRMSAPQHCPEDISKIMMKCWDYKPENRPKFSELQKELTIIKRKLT
Calls of active or inactive are those of the source.
Possible outcomes: active, inactive

1. CC[C@H](Nc1ncnc2[nH]cnc12)c1nc2cccc(F)c2c(=O)n1-c1ccccc1; inactive
2. O=C(O)[C@]1(Cc2cccc(Nc3nccs3)n2)CC[C@@H](Oc2cccc(Cl)c2F)CC1; active
3. Cc1cc(-c2cc(O)ccc2Cl)cc2nnc(Nc3ccc(OCCN4CCCC4)cc3)nc12; inactive
4. CNC(=O)c1ccc(-c2cnc3ncc(Cc4ccc5ncccc5c4)n3n2)cc1F; inactive
5. COc1cc(CCc2cc(NC(=O)c3ccc(N4C[C@@H](C)N[C@@H](C)C4)cc3)n[nH]2)cc(OC)c1; inactive
6. COC(=O)N[C@@H](C)CNc1nccc(-c2cn(C(C)C)nc2-c2cc(Cl)cc(NS(C)(=O)=O)c2F)n1; inactive
7. COCCNCc1ccc(-c2cc3nccc(Oc4ccc(NC(=S)NC(=O)Cc5ccc(F)cc5)cc4F)c3s2)nc1; inactive
8. Cc1c(F)cc(C(=O)NC2CC2)cc1-c1ccc(C(=O)NCC(C)(C)C)cn1; inactive
9. C[C@@H](Nc1cc(F)cc(F)c1)c1cc(C(=O)N(C)C)cc2c(=O)cc(N3CCOCC3)oc12; inactive
10. CNC(=O)c1ccc(C)c(-n2c(C)cc(OCc3ccc(F)cc3F)c(Br)c2=O)c1; inactive
11. Cc1cc2c(F)c(Oc3ncnn4cc(OC[C@@H](C)OC(=O)[C@H](C)N)c(C)c34)ccc2[nH]1 [BRIVANIB ALANINATE]; inactive
12. O=c1sn(-c2cccc3ccccc23)c(=O)n1Cc1ccccc1; inactive
13. CCc1cnn2c(NCc3ccc[n+]([O-])c3)cc(N3CCCC[C@H]3CCO)nc12; inactive
14. CN1CCC(COc2cnc(-c3cccc(Cn4nc(-c5cccc(C#N)c5)ccc4=O)c3)nc2)CC1; inactive
15. O=C1NC(=O)/C(=C/c2ccc3nccc(-c4ccncc4)c3c2)S1; inactive
16. CNC(=O)c1cc(Oc2ccc(NC(=O)Nc3ccc(Cl)c(C(F)(F)F)c3)c(F)c2)ccn1; inactive
